Reference for the values: patent US20050250677A1

Answer each item with its documented pEC50.
- Tested on: HIV-1 (IIIB)
- Test: Inhibition of HIV-1 (IIIB)-induced cytopathicity (giant cell formation) in CEM cells
- Assay type: cell-based
- Test Context: read-out: EC50 HIV-1 (concentration required to inhibit HIV-induced giant cell formation by 50%); HIV-1, CEM cell cultures
Answers are plain numbers, as −log10 of the molar value.

CCCCCCCCCC[N+](C)(C)CCCNCc1c(O)cc2c(c1O)-c1cc(ccc1O)C1NC(=O)C3NC(=O)C(CC(N)=O)NC(=O)C(NC(=O)C(CC(C)C)NC)C(O)c4ccc(c(Cl)c4)Oc4cc3cc(c4OC3OC(CO)C(O)C(O)C3OC3CC(C)(N)C(O)C(C)O3)Oc3ccc(cc3)C(OC3CC(C)(N)C(O)C(C)O3)C(NC1=O)C(=O)NC2C(=O)NCCCN(C)C (stereo not shown) | 5.15

Give me pEC50 for each of these molecules, listed below.
1. CNC(CC(C)C)C(=O)NC1C(=O)NC(CC(N)=O)C(=O)NC2C(=O)NC3C(=O)NC(C(=O)NC(C(=O)NCC45CC6CC(CC(C6)C4)C5)c4cc(O)cc(O)c4-c4cc3ccc4O)C(O)c3ccc(cc3)Oc3cc2cc(c3O)Oc2ccc(cc2Cl)C1O (stereo not shown)
2. CNC(=O)C1NC(=O)C2NC(=O)C(NC(=O)C3NC(=O)C(CC(N)=O)NC(=O)C(NC(=O)C(CC(C)C)NC)C(O)c4ccc(c(Cl)c4)Oc4cc3cc(c4O)Oc3ccc(cc3)C2O)c2ccc(O)c(c2)-c2c1cc(O)c(CN1CCN(Cc3ccc(-c4ccccc4)cc3)CC1)c2O (stereo not shown)
3. CNC(CC(C)C)C(=O)NC1C(=O)NC(CC(N)=O)C(=O)NC2C(=O)NC3C(=O)NC(C(=O)NC(C(=O)N4CCC5CCCCC5C4)c4cc(O)cc(O)c4-c4cc3ccc4O)C(O)c3ccc(cc3)Oc3cc2cc(c3O)Oc2ccc(cc2Cl)C1O (stereo not shown)

Completion:
1. 5.80
2. 5.40
3. 4.20

====

- System: HEL cells
- Test Context: anti-VZV table
Endpoint Label: MTC (HEL)

NC1C(=O)NC2Cc3ccc(c(Cl)c3)Oc3cc4cc(c3O)Oc3ccc(cc3Cl)C(O)C3NC(=O)C(NC(=O)C4NC(=O)C(NC2=O)c2cc(O)cc(c2)Oc2cc1ccc2O)c1ccc(O)c(c1)-c1c(cc(O)c(CN2CCN(Cc4ccc(Cl)cc4)CC2)c1O)C(C(=O)O)NC3=O (stereo not shown) | 20 to 400 µM

Next molecule, MTC (HEL) to be filled in.
Prompt: API: value(readout= MTC (HEL), system= HEL cells, query= CCCCCCCCCC(=O)N1CCN(Cc2c(O)cc3c(c2O)-c2cc(ccc2O)C2NC(=O)C4NC(=O)C5NC(=O)C(Cc6ccc(c(Cl)c6)Oc6cc4cc(c6O)Oc4ccc(cc4Cl)C(O)C(NC2=O)C(=O)NC3C(=O)O)NC(=O)C(N)c2ccc(O)c(c2)Oc2cc(O)cc5c2)CC1 (stereo not shown) )
Completion: 50 µM

====

- Tested on: HIV-2(ROD)
- Test: Inhibition of HIV-2 (ROD)-induced cytopathicity (giant cell formation) in CEM cells
- Format: cell-based
- Test Context: read-out: EC50 HIV-2 (concentration required to inhibit HIV-induced giant cell formation by 50%); HIV-2, CEM cell cultures
Endpoint Label: EC50 (µM)
One number for each entry, in µM.

O=C(NC1C(=O)NC2Cc3ccc(c(Cl)c3)Oc3cc4cc(c3O)Oc3ccc(cc3Cl)C(O)C3NC(=O)C(NC(=O)C4NC(=O)C(NC2=O)c2cc(O)cc(c2)Oc2cc1ccc2O)c1ccc(O)c(c1)-c1c(O)cc(O)cc1C(C(=O)O)NC3=O)C(=O)c1c[nH]c2ccccc12 (centres unmarked) | 15
CCCCCCCCCCNC(=O)C1NC(=O)C2NC(=O)C(NC(=O)C3NC(=O)C4NC(=O)C(Cc5ccc(c(Cl)c5)Oc5cc3cc(c5O)Oc3ccc(cc3Cl)C2O)NC(=O)C(N)c2ccc(O)c(c2)Oc2cc(O)cc4c2)c2ccc(O)c(c2)-c2c1cc(O)c(CNCCCN(C)C)c2O (centres unmarked) | 44
CCCCCCCCCCNCc1c(O)cc2c(c1O)-c1cc(ccc1O)C1NC(=O)C3NC(=O)C4NC(=O)C(Cc5ccc(c(Cl)c5)Oc5cc3cc(c5O)Oc3ccc(cc3Cl)C(O)C(NC1=O)C(=O)NC2C(=O)NCCCN1CCCCC1C)NC(=O)C(N)c1ccc(O)c(c1)Oc1cc(O)cc4c1 (centres unmarked) | 7
CCCCCCCCCCNCc1c(O)cc2c(c1O)-c1cc(ccc1O)C1NC(=O)C3NC(=O)C4NC(=O)C(Cc5ccc(c(Cl)c5)Oc5cc3cc(c5O)Oc3ccc(cc3Cl)C(O)C(NC1=O)C(=O)NC2C(=O)NCCCN(C)C)NC(=O)C(N)c1ccc(O)c(c1)Oc1cc(O)cc4c1 (centres unmarked) | 6
O=C(NC1C(=O)NC2Cc3ccc(c(Cl)c3)Oc3cc4cc(c3O)Oc3ccc(cc3Cl)C(O)C3NC(=O)C(NC(=O)C4NC(=O)C(NC2=O)c2cc(O)cc(c2)Oc2cc1ccc2O)c1ccc(O)c(c1)-c1c(O)cc(O)cc1C(C(=O)O)NC3=O)OC12CC3CC(CC(C3)C1)C2 (centres unmarked) | 6
CCCCCCCCCC[N+](C)(C)CCCNCc1c(O)cc2c(c1O)-c1cc(ccc1O)C1NC(=O)C3NC(=O)C4NC(=O)C(Cc5ccc(c(Cl)c5)Oc5cc3cc(c5O)Oc3ccc(cc3Cl)C(O)C(NC1=O)C(=O)NC2C(=O)NCCCN(C)C)NC(=O)C(N)c1ccc(O)c(c1)Oc1cc(O)cc4c1 (centres unmarked) | 4.5

Give me EC50 for each of these molecules, listed below.
1. CNC(CC(C)C)C(=O)NC1C(=O)NC(CC(N)=O)C(=O)NC2C(=O)NC3C(=O)NC(C(=O)NC(C(=O)O)c4cc(O)cc(O)c4-c4cc3ccc4O)C(O)c3ccc(cc3)Oc3cc2cc(c3O)Oc2ccc(cc2Cl)C1O (centres unmarked)
2. CCCCCCCCCNCc1c(O)cc2c(c1O)-c1cc(ccc1O)C1NC(=O)C3NC(=O)C4NC(=O)C(Cc5ccc(c(Cl)c5)Oc5cc3cc(c5O)Oc3ccc(cc3Cl)C(O)C(NC1=O)C(=O)NC2C(=O)NCCCN(C)C)NC(=O)C(N)c1ccc(O)c(c1)Oc1cc(O)cc4c1 (centres unmarked)
3. NC(=O)CC1NC(=O)C(NC(=O)C(N)Cc2c[nH]c3ccccc23)C(O)c2ccc(c(Cl)c2)Oc2cc3cc(c2O)Oc2ccc(cc2)C(O)C2NC(=O)C(NC(=O)C3NC1=O)c1ccc(O)c(c1)-c1c(O)cc(O)cc1C(C(=O)O)NC2=O (centres unmarked)
4. CCCCc1ccc(CNCc2c(O)cc3c(c2O)-c2cc(ccc2O)C2NC(=O)C4NC(=O)C5NC(=O)C(Cc6ccc(c(Cl)c6)Oc6cc4cc(c6O)Oc4ccc(cc4Cl)C(O)C(NC2=O)C(=O)NC3C(=O)NC)NC(=O)C(N)c2ccc(O)c(c2)Oc2cc(O)cc5c2)cc1 (centres unmarked)
5. CN(C)CCCNC(=O)C1NC(=O)C2NC(=O)C(NC(=O)C3NC(=O)C4NC(=O)C(Cc5ccc(c(Cl)c5)Oc5cc3cc(c5O)Oc3ccc(cc3Cl)C2O)NC(=O)C(N)c2ccc(O)c(c2)Oc2cc(O)cc4c2)c2ccc(O)c(c2)-c2c1cc(O)c(CNC1C3CC4CC(C3)CC1C4)c2O (centres unmarked)

Completion:
[250, 6.5, 42.5, 12.3, 8]

Prompt: API: value(readout= EC50, system= HIV-2(ROD), query= CCCCCCCCCC[N+](C)(C)CCCNC(=O)C1NC(=O)C2NC(=O)C(NC(=O)C3NC(=O)C4NC(=O)C(Cc5ccc(c(Cl)c5)Oc5cc3cc(c5O)Oc3ccc(cc3Cl)C2O)NC(=O)C(N)c2ccc(O)c(c2)Oc2cc(O)cc4c2)c2ccc(O)c(c2)-c2c1cc(O)c(CN1CC[N+](C)(CCCCCCCCCC)CC1)c2O (centres unmarked) )
Completion: 1.3

====

- System: HIV-2 (RF)
- Test Context: read-out: EC50 CEM/0 HIV-2 (RF); CEM/0 cells
Binary label based on EC50 with cut-off 10 µM: below gives condition met, not below gives condition not met.

The following compounds have reported results that may help.
CNC(=O)C1NC(=O)C2NC(=O)C(NC(=O)C3NC(=O)C4NC(=O)C(Cc5ccc(c(Cl)c5)Oc5cc3cc(c5O)Oc3ccc(cc3Cl)C2O)NC(=O)C(N)c2ccc(O)c(c2)Oc2cc(O)cc4c2)c2ccc(O)c(c2)-c2c1cc(O)c(CNC1C3CC4CC(C3)CC1C4)c2O (centres unmarked) [Compound 51] | condition met
CNC(CC(C)C)C(=O)NC1C(=O)NC(CC(N)=O)C(=O)NC2C(=O)NC3C(=O)NC(C(=O)NC(C(=O)O)c4cc(O)c(CN5CCN(Cc6ccc(-c7ccccc7)cc6)CC5)c(O)c4-c4cc3ccc4O)C(O)c3ccc(cc3)Oc3cc2cc(c3O)Oc2ccc(cc2Cl)C1O (centres unmarked) [Compound 6] | condition not met
CCCCc1ccc(CN2CCN(Cc3c(O)cc4c(c3O)-c3cc(ccc3O)C3NC(=O)C5NC(=O)C6NC(=O)C(Cc7ccc(c(Cl)c7)Oc7cc5cc(c7O)Oc5ccc(cc5Cl)C(O)C(NC3=O)C(=O)NC4C(=O)NC)NC(=O)C(N)c3ccc(O)c(c3)Oc3cc(O)cc6c3)CC2)cc1 (centres unmarked) [Compound 31] | condition met

Next item in the queue.
Prompt: Dear colleague, could you confirm whether EC50 of CN(C)CCCNC(=O)C1NC(=O)C2NC(=O)C(NC(=O)C3NC(=O)C4NC(=O)C(Cc5ccc(c(Cl)c5)Oc5cc3cc(c5O)Oc3ccc(cc3Cl)C2O)NC(=O)C(N)c2ccc(O)c(c2)Oc2cc(O)cc4c2)c2ccc(O)c(c2)-c2c1cc(O)c(CNC1C3CC4CC(C3)CC1C4)c2O (centres unmarked) [Compound 19] falls below 10 µM? Thanks.
Completion: condition met
